Ref: ChEMBL document CHEMBL1909046

Assay: DRUGMATRIX: Calcium Channel Type L, Dihydropyridine radioligand binding (ligand: [3H] Nitrendipine)
Assay type: cell membranes, Rattus norvegicus, Wistar, Cerebral cortex, Membrane
Conditions: Not Active = under 50% inhibition at 10 µM
Observable: IC50

O=C(O)Cc1ccccc1Nc1c(Cl)cccc1Cl :: Not Active
COc1ccc2[nH]c([S+]([O-])Cc3ncc(C)c(OC)c3C)nc2c1 (stereo not drawn) :: Not Active
CC(C)[C@H]1CC[C@H](C(=O)N[C@H](Cc2ccccc2)C(=O)O)CC1 [NATEGLINIDE] :: Not Active
CC(C)C[C@H](NC(=O)[C@@H](O)[C@H](N)Cc1ccccc1)C(=O)O :: Not Active
CC(C)Cc1ccc(C(C)C(=O)O)cc1 (stereo not drawn) :: Not Active

q: Given C#C[C@]1(OC(C)=O)CC[C@H]2[C@@H]3CCC4=CC(=O)CC[C@@H]4[C@H]3CC[C@@]21C [NORETHINDRONE ACETATE] , state its recorded IC50.
a: Not Active

q: // repeat for Cc1cccc(Nc2ccncc2S(=O)(=O)NC(=O)NC(C)C)c1 [TORSEMIDE] and report
a: Not Active

q: // repeat for CC1(C)O[C@@H]2C[C@H]3[C@@H]4C[C@H](F)C5=CC(=O)C=C[C@]5(C)[C@H]4[C@@H](O)C[C@]3(C)[C@]2(C(=O)CO)O1 [FLUNISOLIDE] and report
a: Not Active

====

Target: 5-hydroxytryptamine receptor 6 (Homo sapiens, UniProt P50406); note: in other assays of this panel Not Active means under 50% inhibition at 10 µM
Sequence (P50406 whole entry): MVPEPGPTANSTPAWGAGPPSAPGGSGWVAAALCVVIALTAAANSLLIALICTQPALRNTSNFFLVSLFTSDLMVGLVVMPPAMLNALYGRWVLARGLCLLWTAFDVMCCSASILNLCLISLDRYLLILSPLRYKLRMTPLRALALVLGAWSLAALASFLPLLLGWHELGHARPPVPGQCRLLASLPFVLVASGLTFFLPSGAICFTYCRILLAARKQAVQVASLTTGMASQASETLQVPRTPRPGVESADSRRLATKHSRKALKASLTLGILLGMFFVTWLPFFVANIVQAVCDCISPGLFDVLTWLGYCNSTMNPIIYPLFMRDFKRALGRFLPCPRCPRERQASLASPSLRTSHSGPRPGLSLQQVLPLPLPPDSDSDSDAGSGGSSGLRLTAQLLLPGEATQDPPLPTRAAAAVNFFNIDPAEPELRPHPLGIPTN
Format: cell membranes, HeLa, Membrane
Conditions: hela
Observable: IC50

CC1=C(CC(=O)O)c2cc(F)ccc2/C1=C\c1ccc([S+](C)[O-])cc1 (stereo not drawn) :: Not Active
C[C@]12CC[C@@H]3c4ccc(OC(=O)c5ccccc5)cc4CC[C@H]3[C@@H]1CC[C@@H]2O [ESTRADIOL BENZOATE] :: Not Active
CC1(C)O[C@@H]2C[C@H]3[C@@H]4C[C@H](F)C5=CC(=O)CC[C@]5(C)[C@H]4[C@@H](O)C[C@]3(C)[C@]2(C(=O)CO)O1 [FLURANDRENOLIDE] :: Not Active

====

Assay: DRUGMATRIX: Glutamate, NMDA, Phencyclidine radioligand binding (ligand: [3H] TCP)
Type: cell membranes, Rattus norvegicus, Wistar, Cerebral cortex, Membrane
Settings: Not Active = under 50% inhibition at 10 µM
Observable: Ki

Example entries and their recorded answers appear below.
CC(=O)OCC(=O)[C@@]1(O)CC[C@H]2[C@@H]3CCC4=CC(=O)CC[C@]4(C)[C@H]3C(=O)C[C@@]21C [CORTISONE ACETATE] :: Not Active
COc1ccc2cc([C@H](C)C(=O)O)ccc2c1 :: Not Active
CCCN(CCC)C(=O)C(CCC(=O)O)NC(=O)c1ccccc1 (centres undefined) [PROGLUMIDE] :: Not Active
CCN1CC(CCN2CCOCC2)C(c2ccccc2)(c2ccccc2)C1=O (centres undefined) :: Not Active

q: Given "C[C@]12CC[C@@H]3c4ccc(O)cc4CC[C@H]3[C@@H]1CC[C@@H]2O" , state its recorded Ki.
a: Not Active

q: // repeat for CN1C(=O)COc2c(C(=O)NC3CN4CCC3CC4)cc(Cl)cc21 (centres undefined) and report
a: Not Active

q: // repeat for O=C(C1CCCCC1)N1CC(=O)N2CCc3ccccc3C2C1 (centres undefined) and report
a: Not Active

q: // repeat for "CCN[C@@H]1C[C@H](N)[C@@H](O[C@H]2OC(CN)=CC[C@H]2N)[C@H](O)[C@H]1O[C@H]1OC[C@](C)(O)[C@H](NC)[C@H]1O" and report
a: Not Active

q: // repeat for "CC(C)(C(=O)c1cccnc1)c1cccnc1" and report
a: Not Active
